Measured cytotoxicity by item
experimentSummary: viability loss of HPDE-C7K cells – cell-based, fluorescence, HTS, primary screen (AID 431);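 note: 0% = DMSO solvent wells and 100% = doxorubicin-treated wells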
condition: HPDE-C7K KRASV12 cells, Alamar Blue viability, 48 h; at 10 µM; hits give high values
Out of some 63,000 compounds screened, about 1,100 (1.7%) were called active. Many of the other results were omitted from the sample, so actives are more common in it than they were. Potency and affinity values are given separately.
propertyLabel: cytotoxicity (%)

[[record]]
molecule = "COc1cccc(OCCn2c(C)c(/C=N/n3cnnc3)c3ccccc32)c1"
recordedmeasurement = 85.9

[[record]]
molecule = "C=CCn1c(SCC2=C(C(=O)OCC)C(C)NC(=O)N2)nnc1C1CCCCC1 (stereo unspecified)"
recordedmeasurement = -17.2

[[record]]
molecule = "Cc1c(/C=N/n2cnnc2)c2ccccc2n1CCOc1ccccc1"
recordedmeasurement = 43.4

[[record]]
molecule = "COC(=O)C(C)Sc1nc2c(c(=O)[nH]c(=O)n2C)n1CCCc1ccccc1 (stereo unspecified)"
recordedmeasurement = -4.9

[[record]]
molecule = "Oc1ccc(Nc2nc(N3CCCC3)c3ccccc3n2)cc1"
recordedmeasurement = 94.4

[[record]]
molecule = "O=C(Cn1nnc(-c2ccc3c(c2)OCO3)n1)NCc1ccco1"
recordedmeasurement = -12.9

[[record]]
molecule = "CCCn1c(N)c(C(=O)CSc2nnc(-c3ccco3)n2Cc2ccccc2)c(=O)[nH]c1=O"
recordedmeasurement = -9.1

[[record]]
molecule = "CCCCOc1ccc(-c2nnn(CC(=O)NCc3ccco3)n2)cc1"
recordedmeasurement = 50.9

[[record]]
molecule = "CCCC(=O)NCCc1nc2ccccc2n1C"
recordedmeasurement = -5.4

[[record]]
molecule = "CCOc1ccc(-c2nnn(CC(=O)NCc3ccco3)n2)cc1"
recordedmeasurement = 0.2

[[record]]
molecule = "COCCn1c(SC(C)C(=O)Nc2ccc3c(c2)OCCO3)nc2ccccc2c1=O (stereo unspecified)"
recordedmeasurement = -20.1


Just for reference, PubChem BioAssay AID431 is where these values come from.
